test system: DFO2036; test: qHTS profiling for inhibitors of Plasmodium falciparum proliferation (AID 504749); note: nearly all actives have a fitted effect of over 60% in size; conditions: P. falciparum in erythrocytes, SYBR Green DNA, 72 h; series mostly up to 28.7 µM
Inconclusive results are not listed. Calls of active or inactive are those of the source. Calls come from the whole dose curve; as a rule, active = well fitted inhibition curve with a large enough effect; inconclusive = small, poorly fitted or top-dose-only effect; inactive = flat fitted curve, though single readings scatter.
Form entry, call: pick from active, inactive

• c1cc2c(c(N3CCNCC3)c1)OCCO2 = inactive
• O=c1n(Cl)c(=O)n(Cl)c(=O)n1Cl = inactive
• NC(=O)CN1CCCC1=O = inactive
• CCN(CC)C(C)C(=O)c1ccccc1 (stereo not drawn) = inactive
• CC(C)C(Br)C(=O)NC(N)=O (stereo not drawn) = inactive
• CCN(Cc1ccc(Cl)nc1)/C(=C/[N+](=O)[O-])NC = inactive
• C[N+](C)(C)CCOC(=O)C(O)(c1ccccc1)c1ccccc1 = inactive
• OC(O)C(Cl)(Cl)Cl = inactive

Dear colleague, could you share the recorded outcome for `CCCCCCCCC(=O)NCc1ccc(O)c(OC)c1` when you have a moment?
inactive

Dear colleague, could you share the recorded outcome for `CCCCCCCCCCCC[N+](C)(C)CCOc1ccccc1` when you have a moment?
active
